Hi there, I'd appreciate the recorded IC50 for every entry that follows.
Test system: 874868-142-R-J2-PDC complex spheroids, growth % test/control
Test: Anticancer human tumor 874868-142-R-J2-PDC patient-derived head and neck squamous carcinoma cell line growth inhibition [CLK]
Conditions: curve of first compound; second compound 10 µM

// returns reported IC50 for input CC(C)CC(NC(=O)C(Cc1ccccc1)NC(=O)c1cnccn1)B(O)O (stereo not given) + CNC(=O)c1ccc(Nc2nc(OC3CCCC3)c3c(-c4ccc5nc(C)oc5c4)c[nH]c3n2)c(OC)c1
< 0.949 nM

// returns reported IC50 for input CCCS(=O)(=O)Nc1ccc(F)c(C(=O)c2c[nH]c3ncc(-c4ccc(Cl)cc4)cc23)c1F + CN1CCN(c2cc(C(=O)Nc3cc4cc(-c5cnn(C)c5)ccc4cn3)ccn2)CC1
< 31.6 nM

// returns reported IC50 for input CC(C)CC(NC(=O)C(Cc1ccccc1)NC(=O)c1cnccn1)B(O)O (stereo not given) + CN1CCN(c2cc(C(=O)Nc3cc4cc(-c5cnn(C)c5)ccc4cn3)ccn2)CC1
< 0.949 nM

// returns reported IC50 for input O=C(c1cc(Cc2n[nH]c(=O)c3ccccc23)ccc1F)N1CCN(C(=O)C2CC2)CC1 + CN1CCN(c2cc(C(=O)Nc3cc4cc(-c5cnn(C)c5)ccc4cn3)ccn2)CC1
< 31.6 nM

// returns reported IC50 for input CC1(C)CCC(CN2CCN(c3ccc(C(=O)NS(=O)(=O)c4ccc(NCC5CCOCC5)c([N+](=O)[O-])c4)c(Oc4cnc5[nH]ccc5c4)c3)CC2)=C(c2ccc(Cl)cc2)C1 + CNC(=O)c1ccc(Nc2nc(OC3CCCC3)c3c(-c4ccc5nc(C)oc5c4)c[nH]c3n2)c(OC)c1
< 31.6 nM

----------
Test system: 874868-142-R-J2-PDC complex spheroids, growth % test/control
Assay: Anticancer human tumor 874868-142-R-J2-PDC cell line growth inhibition [CLK]; active = viability on the fitted dose curve at most 10% of control; inactive = the rest;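 further: spheroids exposed to the compounds for 7 days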
Conditions: second compound 10 µM; first compound 0.01 µM
The categories you may choose from are active, inactive

Can you look up the reported call for Cn1ncnc1[C@H]1c2n[nH]c(=O)c3cc(F)cc(c23)N[C@@H]1c1ccc(F)cc1 + CN1CCN(c2cc(C(=O)Nc3cc4cc(-c5cnn(C)c5)ccc4cn3)ccn2)CC1 for me?
active

Can you look up the reported call for Cn1ncnc1[C@H]1c2n[nH]c(=O)c3cc(F)cc(c23)N[C@@H]1c1ccc(F)cc1 + CNC(=O)c1ccc(Nc2nc(OC3CCCC3)c3c(-c4ccc5nc(C)oc5c4)c[nH]c3n2)c(OC)c1 for me?
inactive

Can you look up the reported call for CCc1c2c(nc3ccc(O)cc13)-c1cc3c(c(=O)n1C2)COC(=O)[C@]3(O)CC + CN1CCN(c2cc(C(=O)Nc3cc4cc(-c5cnn(C)c5)ccc4cn3)ccn2)CC1 for me?
active

----------
Hi there, I'd appreciate the recorded IC50 for every entry that follows.
Test system: 874868-142-R-J2-PDC complex spheroids, growth % test/control
Test: Anticancer human tumor 874868-142-R-J2-PDC cell line growth inhibition [CLK];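 further: spheroids exposed to the compounds for 7 days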
Conditions: curve of first compound; second compound 10 µM

Lookup: IC50 / 874868-142-R-J2-PDC complex spheroids, growth % test/control / O=c1[nH]cc(F)c(=O)[nH]1 + CN1CCN(c2cc(C(=O)Nc3cc4cc(-c5cnn(C)c5)ccc4cn3)ccn2)CC1
< 31.6 nM

Lookup: IC50 / 874868-142-R-J2-PDC complex spheroids, growth % test/control / COc1c(OCCCN2CCOCC2)ccc2c3n(c(=NC(=O)c4cnc(N)nc4)nc12)CCN3 + CN1CCN(c2cc(C(=O)Nc3cc4cc(-c5cnn(C)c5)ccc4cn3)ccn2)CC1
< 3.16 nM

Lookup: IC50 / 874868-142-R-J2-PDC complex spheroids, growth % test/control / Nc1ccccc1NC(=O)c1ccc(CNC(=O)OCc2cccnc2)cc1 + CNC(=O)c1ccc(Nc2nc(OC3CCCC3)c3c(-c4ccc5nc(C)oc5c4)c[nH]c3n2)c(OC)c1
3440 nM

Lookup: IC50 / 874868-142-R-J2-PDC complex spheroids, growth % test/control / NC(=O)C(=Cn1cnc(-c2cc(C(F)(F)F)cc(C(F)(F)F)c2)n1)c1cncnc1 + CNC(=O)c1ccc(Nc2nc(OC3CCCC3)c3c(-c4ccc5nc(C)oc5c4)c[nH]c3n2)c(OC)c1
< 9.49 nM

Lookup: IC50 / 874868-142-R-J2-PDC complex spheroids, growth % test/control / COc1cccc2c1C(=O)c1c(O)c3c(c(O)c1C2=O)CC(O)(C(=O)CO)CC3OC1CC(N)C(O)C(C)O1 (stereo not drawn) + CNC(=O)c1ccc(Nc2nc(OC3CCCC3)c3c(-c4ccc5nc(C)oc5c4)c[nH]c3n2)c(OC)c1
< 31.6 nM

Lookup: IC50 / 874868-142-R-J2-PDC complex spheroids, growth % test/control / Nc1ccn(C2OC(CO)C(O)C2(F)F)c(=O)n1 (stereo not drawn) + CN1CCN(c2cc(C(=O)Nc3cc4cc(-c5cnn(C)c5)ccc4cn3)ccn2)CC1
< 31.6 nM

Lookup: IC50 / 874868-142-R-J2-PDC complex spheroids, growth % test/control / Cn1ncnc1[C@H]1c2n[nH]c(=O)c3cc(F)cc(c23)N[C@@H]1c1ccc(F)cc1 + CNC(=O)c1ccc(Nc2nc(OC3CCCC3)c3c(-c4ccc5nc(C)oc5c4)c[nH]c3n2)c(OC)c1
< 0.316 nM

Lookup: IC50 / 874868-142-R-J2-PDC complex spheroids, growth % test/control / O=c1[nH]cc(F)c(=O)[nH]1 + CNC(=O)c1ccc(Nc2nc(OC3CCCC3)c3c(-c4ccc5nc(C)oc5c4)c[nH]c3n2)c(OC)c1
< 31.6 nM

----------
System: 874868-142-R-J2-PDC complex spheroids, growth % test/control
Experiment: Anticancer human tumor 874868-142-R-J2-PDC cell line growth inhibition [CLK];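 further: spheroids exposed to the compounds for 7 days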;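 on viability, T/C: 100% = DMSO vehicle control viability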
Settings: second compound 0.316 µM; first compound 10 µM; stronger effect = lower value
Hi there, I'd appreciate the recorded viability, T/C for every entry that follows.

// returns reported viability, T/C for input CC1COCCN1c1cc(C2(S(C)(=N)=O)CC2)nc(-c2ccnc3[nH]ccc23)n1 (stereo not given) + CNC(=O)c1ccc(Nc2nc(OC3CCCC3)c3c(-c4ccc5nc(C)oc5c4)c[nH]c3n2)c(OC)c1
35.6%

// returns reported viability, T/C for input C=C(F)C(=O)N1CCN(c2nc(OCC3CCCN3C)nc3c2CCN(c2cccc4cccc(Cl)c24)C3)CC1CC#N (stereo not given) + CNC(=O)c1ccc(Nc2nc(OC3CCCC3)c3c(-c4ccc5nc(C)oc5c4)c[nH]c3n2)c(OC)c1
1.18%

// returns reported viability, T/C for input COc1cccc2c1C(=O)c1c(O)c3c(c(O)c1C2=O)CC(O)(C(=O)CO)CC3OC1CC(N)C(O)C(C)O1 (stereo not given) + CN1CCN(c2cc(C(=O)Nc3cc4cc(-c5cnn(C)c5)ccc4cn3)ccn2)CC1
0.18%

// returns reported viability, T/C for input CC(CO)NC(=O)c1cc(-c2ccc(Cl)cc2)nn(-c2cnn(C)c2)c1=O (stereo not given) + CN1CCN(c2cc(C(=O)Nc3cc4cc(-c5cnn(C)c5)ccc4cn3)ccn2)CC1
29.1%

// returns reported viability, T/C for input CC1(C)CCC(CN2CCN(c3ccc(C(=O)NS(=O)(=O)c4ccc(NCC5CCOCC5)c([N+](=O)[O-])c4)c(Oc4cnc5[nH]ccc5c4)c3)CC2)=C(c2ccc(Cl)cc2)C1 + CNC(=O)c1ccc(Nc2nc(OC3CCCC3)c3c(-c4ccc5nc(C)oc5c4)c[nH]c3n2)c(OC)c1
44.2%

// returns reported viability, T/C for input Nc1ccccc1NC(=O)c1ccc(CNC(=O)OCc2cccnc2)cc1 + CNC(=O)c1ccc(Nc2nc(OC3CCCC3)c3c(-c4ccc5nc(C)oc5c4)c[nH]c3n2)c(OC)c1
11.3%

// returns reported viability, T/C for input Nc1ccn(C2OC(CO)C(O)C2(F)F)c(=O)n1 (stereo not given) + CN1CCN(c2cc(C(=O)Nc3cc4cc(-c5cnn(C)c5)ccc4cn3)ccn2)CC1
11.8%

// returns reported viability, T/C for input CC(=O)O[C@H]1C(=O)[C@@]2(C)[C@H]([C@H](OC(=O)c3ccccc3)[C@]3(O)C[C@H](OC(=O)[C@H](O)[C@@H](NC(=O)c4ccccc4)c4ccccc4)C(C)=C1C3(C)C)[C@]1(OC(C)=O)CO[C@@H]1C[C@@H]2O + CN1CCN(c2cc(C(=O)Nc3cc4cc(-c5cnn(C)c5)ccc4cn3)ccn2)CC1
17.3%

// returns reported viability, T/C for input C=CC(=O)N1CCN(c2nc(=O)n(-c3c(C)ccnc3C(C)C)c3nc(-c4c(O)cccc4F)c(F)cc23)C(C)C1 (stereo not given) + CN1CCN(c2cc(C(=O)Nc3cc4cc(-c5cnn(C)c5)ccc4cn3)ccn2)CC1
12.2%

// returns reported viability, T/C for input CCCS(=O)(=O)Nc1ccc(F)c(C(=O)c2c[nH]c3ncc(-c4ccc(Cl)cc4)cc23)c1F + CNC(=O)c1ccc(Nc2nc(OC3CCCC3)c3c(-c4ccc5nc(C)oc5c4)c[nH]c3n2)c(OC)c1
53.2%
